# T/C per record follows
Tested on: L1210 leukemia ip in BDF1 mice, survival T/C
Assay: NCI In Vivo Anticancer Drug Screen. Data for tumor model L1210 Leukemia (intraperitoneal) in B6D2F1 (BDF1) mice
Conditions: endpoint: mean survival time; dose: 200.0 mg/kg/injection; schedule: Q04DX003 (ip); vehicle: saline; higher = longer survival
Method: The antitumor activity of compounds was measured in mice bearing transplantable tumors. Survival or tumor size were measured and the results are expressed as the measurement made in the treated group (T) divided by the measurement made in the vehicle treated control group (C). The tumor model used in this assay is L1210 Leukemia (intraperitoneal) in B6D2F1 (BDF1) mice
Toxic doses and inconclusive results are not listed.

Sample answers from the record:
CCOC(=O)c1c(O)[nH]c(=O)c(Br)c1C: 89 % of control
CCCNC: 98 % of control

Exercise: Query: T/C; subject: CCC1(O)C(=O)OCc2c1ccnc2Cl (stereo not drawn)
Key: 103 % of control

----------
system: L1210 leukemia ip in BDF1 mice, survival T/C; assay: NCI In Vivo Anticancer Drug Screen. Data for tumor model L1210 Leukemia (intraperitoneal) in B6D2F1 (BDF1) mice; settings: endpoint: mean survival time; dose: 200.0 mg/kg/injection; schedule: Q04DX003 (ip); vehicle: saline with Tween-80; higher = longer survival
Inconclusive results and toxic doses are left out.
ASSAY METRIC: T/C

CCOC(=O)C(C)C(c1ccccc1)c1ccccc1 (configuration not stated): 93 % of control
CC(C)COC(C[N+](=O)[O-])C(Cl)(Cl)Cl (configuration not stated): 90 % of control
CCc1ccccc1NC(=O)c1ccccc1Cl: 101 % of control
COC(=O)CNC(=O)C(C)NC(=O)OCc1ccccc1 (configuration not stated): 98 % of control
CCOC(=O)c1nc(SC)n(Cc2ccccc2)c1C(=O)OCC: 100 % of control
CCCCN(CCO)C(C#CC(C)(C)O)C(C)C (configuration not stated): 101 % of control
Cn1nnnc1N/N=C(\Br)c1ccccc1: 104 % of control
Fc1c(F)c(F)c(Oc2nc(Oc3c(F)c(F)c(F)c(F)c3F)nc(-c3ccccc3)n2)c(F)c1F: 92 % of control

Exercise: Query: T/C; subject: CCO/C=C/C(=O)NC(=O)OCC
Key: 100 % of control

Exercise: Request: CSC(S(C)(=O)=O)S(C)(=O)=O
Key: 96 % of control

----------
tested on: L1210 leukemia ip in BDF1 mice, survival T/C; test: NCI In Vivo Anticancer Drug Screen. Data for tumor model L1210 Leukemia (intraperitoneal) in B6D2F1 (BDF1) mice; details: endpoint: mean survival time; dose: 100.0 mg/kg/injection; schedule: Q01DX001 (ip); vehicle: Klucel (hydroxypropylcellulose) (HPC); higher = longer survival
Toxic doses and inconclusive results are not listed.
# T/C per record follows

O=C(Nc1ccc(NS(=O)(=O)c2ccccc2)cc1Cl)c1ccccc1: 108 % of control
Cc1ncc(C(C)(O)c2ccc(Cl)cc2)n1Cc1ccccc1 (stereo unspecified): 112 % of control
Cc1cc(=O)[nH]c2nc3ccccc3n12: 108 % of control
CCOC(=O)C(C(=O)OCC)C1c2ccccc2C([N+](=O)[O-])c2ccccc21 (stereo unspecified): 91 % of control
CC1(C)N=C(N)N=C(N)N1c1ccc(CC(C(=O)Nc2ccc(S(=O)(=O)F)cc2)c2cccc3ccccc23)cc1 (stereo unspecified): 95 % of control

Exercise: Query: T/C; subject: COc1ccccc1OS(=O)(=O)c1ccc(COc2ccc([N+](=O)[O-])cc2Cl)cc1
Key: 93 % of control

Exercise: Request: O=C(NCc1ccncc1)Nc1ccccc1F
Key: 93 % of control

Exercise: Request: c1ccc(C2=NC2c2ccccc2)cc1 (stereo unspecified)
Key: 105 % of control

----------
test system: L1210 leukemia ip in BDF1 mice, survival T/C; assay: NCI In Vivo Anticancer Drug Screen. Data for tumor model L1210 Leukemia (intraperitoneal) in B6D2F1 (BDF1) mice; details: endpoint: mean survival time; dose: 400.0 mg/kg/injection; schedule: Q01DX009 (ip); vehicle: Klucel (hydroxypropylcellulose) (HPC); higher = longer survival
Toxic doses and inconclusive results are not listed.
# T/C per record follows

Sample answers from the record:
O=C(Nc1ccccc1Cl)OCCOc1ccccc1: 94 % of control
COc1ccc(C2=CCCC2)cc1: 89 % of control
Cc1ccc(Nc2ccc([N+](=O)[O-])cc2[N+](=O)[O-])c(C)c1: 103 % of control
CC(C)(C)N(CCC(=O)c1ccccc1)C(=O)c1ccccc1: 88 % of control
Cc1ccc(Cl)cc1NC(=O)Oc1ccc(C(C)(C)C)cc1Br: 108 % of control

Now let's try a different one.
Exercise: Quick check: T/C on L1210 leukemia ip in BDF1 mice, survival T/C, item Clc1ccc(C2CC3(CC(c4ccc(Cl)cc4)N2)SSC2(CC(c4ccc(Cl)cc4)NC(c4ccc(Cl)cc4)C2)S3)cc1 (stereo unspecified) ?
Key: 98 % of control

----------
tested on: L1210 leukemia ip in BDF1 mice, survival T/C; test: NCI In Vivo Anticancer Drug Screen. Data for tumor model L1210 Leukemia (intraperitoneal) in B6D2F1 (BDF1) mice; details: endpoint: mean survival time; dose: 200.0 mg/kg/injection; schedule: Q01DX001 (ip); vehicle: Klucel (hydroxypropylcellulose) (HPC); higher = longer survival
Toxic doses and inconclusive results are not listed.
ASSAY METRIC: T/C

Sample answers from the record:
CC(=O)C1CCC2(C)CCC(=O)C(C)C2C1 (stereo unspecified): 106 % of control
COc1c(NC(=O)CC(C)=O)ccc2c(C)cc(=O)n(C)c12: 100 % of control
COc1ccc(-n2c(O)c(N=Nc3ccccc3OC)c(=O)n(-c3ccccc3)c2=S)cc1: 92 % of control
CCC(CN)(c1cccs1)c1cccs1: 97 % of control
Nc1cccc(CCCCc2ccc(Cl)cc2Cl)c1: 96 % of control

Now let's try a different one.
Exercise: Query: T/C; subject: Clc1ccc2c(c1)C(=P(c1ccccc1)(c1ccccc1)c1ccccc1)c1cc(Cl)cc(Cl)c1-2
Key: 96 % of control

----------
system: L1210 leukemia ip in BDF1 mice, survival T/C; assay: NCI In Vivo Anticancer Drug Screen. Data for tumor model L1210 Leukemia (intraperitoneal) in B6D2F1 (BDF1) mice; details: endpoint: mean survival time; dose: 200.0 mg/kg/injection; schedule: Q04DX003 (ip); vehicle: saline; higher = longer survival
Toxic doses and inconclusive results are not listed.
# T/C per record follows

Sample answers from the record:
NCCB(O)O: 93 % of control
O=NN(CS(=O)(=O)O)c1ccccc1: 103 % of control

Exercise: Query: T/C; subject: CNC(=O)NC(=O)C(C)(C)Oc1ccc(Cl)cc1
Key: 94 % of control

Exercise: Request: C(=N/OC(c1ccccc1)(c1ccccc1)c1ccccc1)/c1ccccc1
Key: 95 % of control

Exercise: Request: COc1ccc(C(Br)C(Br)C(=O)c2ccc3c(c2)OCO3)cc1OC (stereo unspecified)
Key: 89 % of control

Exercise: Request: c1ccc(CC(Cc2ccccc2)CN2CCCC2)cc1
Key: 94 % of control

----------
test system: L1210 leukemia ip in BDF1 mice, survival T/C; assay: NCI In Vivo Anticancer Drug Screen. Data for tumor model L1210 Leukemia (intraperitoneal) in B6D2F1 (BDF1) mice; settings: endpoint: mean survival time; dose: 400.0 mg/kg/injection; schedule: Q04DX003 (ip); vehicle: saline with Tween-80; higher = longer survival
Inconclusive results and toxic doses are left out.
ASSAY METRIC: T/C

Sample answers from the record:
CC(C)=CCC/C(C)=C/CN1C(=O)CC(C)=C(C)C1=O: 95 % of control
O=C1Nc2c(ccc3ccccc23)/C1=C/c1ccccc1: 97 % of control
O=C(Nc1ccc(Cl)cc1)OCC#CCOC(=O)Nc1ccc(Cl)cc1: 90 % of control
Cc1cccc(C(=O)CC(O)(C(F)(F)F)C(F)(F)F)c1: 102 % of control

Exercise: Query: T/C; subject: Fc1c(F)c(F)c(Oc2nc(Oc3c(F)c(F)c(F)c(F)c3F)nc(-c3ccccc3)n2)c(F)c1F
Key: 87 % of control

----------
system: L1210 leukemia ip in BDF1 mice, survival T/C; experiment: NCI In Vivo Anticancer Drug Screen. Data for tumor model L1210 Leukemia (intraperitoneal) in B6D2F1 (BDF1) mice; settings: endpoint: mean survival time; dose: 200.0 mg/kg/injection; schedule: Q04DX003 (ip); vehicle: Klucel (hydroxypropylcellulose) (HPC); higher = longer survival
Toxic doses and inconclusive results are not listed.
ASSAY METRIC: T/C

Sample answers from the record:
O=C(c1ccccc1Br)C1C(c2ccccc2)N1C1CCCCC1 (stereo not drawn): 98 % of control
c1cnc2[nH]cnc2n1: 100 % of control
O=C1NC(=O)C(c2ccccc2)(C2CC2)N1 (stereo not drawn): 101 % of control
Cc1cc(=O)oc2cc(O)ccc12: 98 % of control
O=C(CCCCl)NCc1ccccc1[N+](=O)[O-]: 93 % of control

Exercise: Quick check: T/C on L1210 leukemia ip in BDF1 mice, survival T/C, item O=[N+]([O-])c1cccc(/C=C/S(=O)(=O)c2ccccc2)c1 ?
Key: 103 % of control

Exercise: Request: O=[N+]([O-])/C=C/c1ccc([N+](=O)[O-])cc1
Key: 104 % of control

Exercise: Request: O=[N+]([O-])c1cc(Cl)cc2c1-c1c(Cl)cc(Cl)cc1C2O (stereo not drawn)
Key: 103 % of control
